Just for reference, patent US8552033B2 is where these values come from.

# TARGET_SYSTEM: human CXCR2 (Homo sapiens (Human), UniProt P25025)
# Sequence (P25025 whole entry): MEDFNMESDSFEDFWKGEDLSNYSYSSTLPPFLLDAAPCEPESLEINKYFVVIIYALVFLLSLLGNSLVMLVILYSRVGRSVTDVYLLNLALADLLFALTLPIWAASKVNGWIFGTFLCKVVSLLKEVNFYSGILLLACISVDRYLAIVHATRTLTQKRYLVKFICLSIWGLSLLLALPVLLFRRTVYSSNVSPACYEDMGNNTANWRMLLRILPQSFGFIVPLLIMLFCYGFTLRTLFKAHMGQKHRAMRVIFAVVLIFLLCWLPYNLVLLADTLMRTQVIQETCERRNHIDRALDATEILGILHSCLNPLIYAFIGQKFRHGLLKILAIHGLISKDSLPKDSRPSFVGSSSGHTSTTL
# ASSAY_EXPLANATION: CXCR2 inhibition: calcium fluorescence assay (FLIPR)
# CONDITION_INFO: chemokine IL-8; CHO-K1 cells stably transfected with human CXCR2 and Gα16; Fluo-4 calcium response
Quick reference: IC50 of the listed items.
I only need the number, in µM, no unit after it.

{"MOLECULE": "O=C(NC1(C(=O)O)CCOCC1)c1cc(F)c2ccccc2c1OCc1ccc(SC(F)(F)F)cc1 [Example 12]", "TEST_RESULT": 6}

Next item in the queue.
Input: Enter reported IC50 observed with human CXCR2 (Homo sapiens (Human), UniProt P25025) for CCC(NC(=O)c1ccc2ccccc2c1OCc1ccc(C(F)(F)F)cc1)(C(=O)O)c1ccccc1 (centres unmarked) [Example 10]
Output: 2.2
